test: Fluorescence property of compound in MeOH assessed as quantum yield; format: physicochemical

smiles_entry: COc1ccc2nc3cc(Cl)ccc3c(NCCOCCOCCn3cnc4c(OCc5ccccc5)nc(N)nc43)c2c1
Activity: 0.06
--
smiles_entry: COc1ccc2nc3cc(Cl)ccc3c(N)c2c1
Activity: 0.42
--
smiles_entry: COc1ccc2nc3cc(Cl)ccc3c(NCCCCn3cnc4c(OCc5ccccc5)nc(N)nc43)c2c1
Activity: 0.06
--
smiles_entry: COc1ccc2nc3cc(Cl)ccc3c(NCCC(=O)NCc3cccc(COc4nc(N)nc5[nH]cnc45)c3)c2c1
Activity: 0.07
--
smiles_entry: COc1ccc2nc3cc(Cl)ccc3c(NCCCCCCCCn3cnc4c(OCc5ccccc5)nc(N)nc43)c2c1
Activity: 0.05
--
smiles_entry: COc1ccc2nc3cc(Cl)ccc3c(NCCOCCOCC(=O)NCc3cccc(COc4nc(N)nc5[nH]cnc45)c3)c2c1
Activity: 0.06
--
smiles_entry: COc1ccc2nc3cc(Cl)ccc3c(NCCCCCCCC(=O)NCc3cccc(COc4nc(N)nc5[nH]cnc45)c3)c2c1
Activity: 0.06

---

test: Fluorescence property of compound in THF assessed as quantum yield; type: physicochemical
One threshold, 0.09, splits the recorded Activity values: lower ones are label 1, equal or higher ones are label 0.

smiles_entry: COc1ccc2nc3cc(Cl)ccc3c(NCCCCCCCCn3cnc4c(OCc5ccccc5)nc(N)nc43)c2c1
label: label 1
//
smiles_entry: COc1ccc2nc3cc(Cl)ccc3c(NCCOCCOCC(=O)NCc3cccc(COc4nc(N)nc5[nH]cnc45)c3)c2c1
label: label 1
//
smiles_entry: COc1ccc2nc3cc(Cl)ccc3c(NCCC(=O)NCc3cccc(COc4nc(N)nc5[nH]cnc45)c3)c2c1
label: label 0
//
smiles_entry: COc1ccc2nc3cc(Cl)ccc3c(NCCCCCCCC(=O)NCc3cccc(COc4nc(N)nc5[nH]cnc45)c3)c2c1
label: label 1
//
smiles_entry: COc1ccc2nc3cc(Cl)ccc3c(N)c2c1
label: label 0

---

experiment: Fluorescence property of compound in MeCN assessed as quantum yield; format: physicochemical
Activity reference

smiles_entry: COc1ccc2nc3cc(Cl)ccc3c(NCCCCCCCCn3cnc4c(OCc5ccccc5)nc(N)nc43)c2c1
Activity: 0.09
--
smiles_entry: COc1ccc2nc3cc(Cl)ccc3c(NCCOCCOCC(=O)NCc3cccc(COc4nc(N)nc5[nH]cnc45)c3)c2c1
Activity: 0.05
--
smiles_entry: COc1ccc2nc3cc(Cl)ccc3c(NCCC(=O)NCc3cccc(COc4nc(N)nc5[nH]cnc45)c3)c2c1
Activity: 0.06
--
smiles_entry: COc1ccc2nc3cc(Cl)ccc3c(NCCCCn3cnc4c(OCc5ccccc5)nc(N)nc43)c2c1
Activity: 0.07
--
smiles_entry: COc1ccc2nc3cc(Cl)ccc3c(NCCCCCCCC(=O)NCc3cccc(COc4nc(N)nc5[nH]cnc45)c3)c2c1
Activity: 0.04
--
smiles_entry: COc1ccc2nc3cc(Cl)ccc3c(NCCOCCOCCn3cnc4c(OCc5ccccc5)nc(N)nc43)c2c1
Activity: 0.09
--
smiles_entry: COc1ccc2nc3cc(Cl)ccc3c(N)c2c1
Activity: 0.22
